Each recorded value in this set is attributed to the supplement of paper PMC11502859.

System: HEK293T
Assay: median enrichment of reporter reads in eGFP-reduced (low/intermediate) vs eGFP-high sorted cells (eGFP-extension fusion abundance) (ratio); higher = stronger loss of eGFP-fusion protein abundance (more destabilising extension)
measured.quantity: median enrichment

{"substance": "PPTTPHQATPAASAFLGAERQPRPPVPSPPSHHRSSAPGRTVWPLPVPAMGSGWTPWAPPIAKPGRQLSLVPASGQPRVSPAS [CAPN1]", "value": 6.04}
{"substance": "RESLHLEITTGYASGI [ZNF41]", "value": 5.83}
{"substance": "YGTKPRRIPPQ [CA10]", "value": 0.595}
{"substance": "SGLVCRTAAGAPPGQIIAASDCGLYLFIPSDFFNVRYL [FBLN1]", "value": 30.5}
{"substance": "CSWSRG [MLIP]", "value": 6.67}
{"substance": "RNEYMTGNNGDCL [CTPS2]", "value": 0.464}
{"substance": "WGPGSLHASALAPAGSKHRACPPHPEDLRAMPVPPHAGGCLGHLPAH [RHPN1]", "value": 3.51}
{"substance": "SEVRPGPGQGLGPAPCPICSGPQAPPFEEVG [GUCY2D]", "value": 1.47}
{"substance": "YPHRGAGEGALDN [TMEM203]", "value": 0.51}

* * *

System: HEK293T
Experiment: median enrichment of reporter reads in eGFP-reduced (low/intermediate) vs eGFP-high sorted cells (eGFP-extension fusion abundance) (ratio); higher = stronger loss of eGFP-fusion protein abundance (more destabilising extension)
I would appreciate it if you labelled entries yes when median enrichment is 5 or higher, otherwise no.

{"substance": "CVTVLDFSKTSFNTE [GABRB3]", "class.assignment": "no"}
{"substance": "KVPMSQPGLWLPSIPSPEMAPWDEEGRVGCWCRIKIWQDRLPQGHRPLPPTRTPPTQLPLRVL [ITGA7]", "class.assignment": "yes"}
{"substance": "KKKKKKRRKKLL [CCNT1]", "class.assignment": "no"}
{"substance": "SGLELYPGPNSRTTRGLQTFLGGQAGQMAPPLGNAPSCAVERS [ELF3]", "class.assignment": "no"}
{"substance": "SCSNGKMALFKPGPPIGQTQQQTRGQGSPVALSIEDRFLGSRRGWRKLKAGE [BTN3A2]", "class.assignment": "yes"}
{"substance": "YRHQVW [SMAD3]", "class.assignment": "no"}
{"substance": "RGGRWEPSFQ [OR6Q1]", "class.assignment": "no"}
{"substance": "WLTLSLCCLLLS [SIRPB1]", "class.assignment": "yes"}
{"substance": "WGPDSELEGGEIFKEKRGKWEGCKRGE [SOX2]", "class.assignment": "yes"}
{"substance": "YGGPVGEPGDSRV [CHRND]", "class.assignment": "no"}
{"substance": "WGAPQEGPVDLRRLHKKLMDHWSVPMGSIISSTLKMSKVCSFQTASPGSLGNAGKSKRISLALIT [ACSM5]", "class.assignment": "yes"}
{"substance": "QELARQLPLLHPQ [TECTB]", "class.assignment": "no"}

* * *

System: HEK293T
Assay: median enrichment of reporter reads in eGFP-reduced (low/intermediate) vs eGFP-high sorted cells (eGFP-extension fusion abundance) (ratio); higher = stronger loss of eGFP-fusion protein abundance (more destabilising extension)
I would appreciate it if you labelled entries MET when median enrichment is 7 or higher, otherwise NOT MET.

{"substance": "NGPPLPPSPDAEMVMGSWRVGSEMKGTPQWAAGPIFPKPCHYLCEGGQVAEGSGCRLLYPLCLKHPPHRALVFTRFVLDSLNG [SLC13A5]", "class.assignment": "NOT MET"}
{"substance": "QVTGNLSHLPFSSGTTLHKCVPRGSPFLSSSTENAARSSYPSSRGPAAMLYAPEGTLVPRKERKKRDGLWLHFLGP [VAMP8]", "class.assignment": "MET"}
{"substance": "SGARLWDRPGPASGGDPGSGLGSPDLEACPSRASQD [CEBPA]", "class.assignment": "NOT MET"}
{"substance": "MMMMMMMMM [Met09]", "class.assignment": "MET"}
{"substance": "RGLGWAGARRAAGWPLGGQDGTVGTEVGGRGPSGLN [TNFRSF8]", "class.assignment": "NOT MET"}
{"substance": "QDPVVLFESLRP [HAVCR1]", "class.assignment": "NOT MET"}
{"substance": "YKPGGSSHSCSQGHWARAAHAQEARFEGICEAAACCCTCAFSLPLPSLSSHGGVRSCPCSESTFPAIPGAGGACASAIPCDQA [TSSK6]", "class.assignment": "NOT MET"}
{"substance": "SAEGKSGKMSFERCIPKASSGASGKSGPTSARPSSPSPAPPLVSSFIQQNLAGK [NKG7]", "class.assignment": "NOT MET"}
{"substance": "WSLKWRTCVFIISAKVLTSCAFPITSRSNYQLVWIFGPPFSHFGLPCSQNILNESIGIQKDSRQNERK [VCAN]", "class.assignment": "MET"}
{"substance": "SPPGPSPGSGTLVPNPERSALLP [VPS35L]", "class.assignment": "NOT MET"}
{"substance": "GGLLALTLQPTLAVWPSPGSFPAPLPLFPVLLNSPSWRVQALGMGGTRPHSFHRALRPDTADQPHSAQEAASGVGAQRGTAAS [BAP1]", "class.assignment": "NOT MET"}
{"substance": "GGAAAAWSLRPSRPPSAAPSAAVCVAWASFQLTHGLKNRCFI [TMEM18]", "class.assignment": "NOT MET"}
{"substance": "YRGRPGTGGMSCRPQPGRTPHSLSRQRGQNRPAQPWSPLHSPRPLAPALPTSSAWSEGAARAQQRRGGRLWPPTSRPVPAGTA [ARHGAP39]", "class.assignment": "MET"}
{"substance": "REAMPWSWD [SLN]", "class.assignment": "NOT MET"}
{"substance": "LLHERMQRMQFPGCAVDFFQQV [CEP112]", "class.assignment": "MET"}
{"substance": "CGLGRFS [IMMT]", "class.assignment": "NOT MET"}
{"substance": "RSPPHLRPKGRPPPAFLTPALLPQRMWGGGGGPCGPGAQLPGTPVPGQAHLEEESLPPPKYWAALSLPRDHPSLPAMCTIMTN [GPR108]", "class.assignment": "NOT MET"}

* * *

Tested on: HEK293T
Experiment: median enrichment of reporter reads in eGFP-reduced (low/intermediate) vs eGFP-high sorted cells (eGFP-extension fusion abundance) (ratio); higher = stronger loss of eGFP-fusion protein abundance (more destabilising extension)
I would appreciate it if you labelled entries YES when median enrichment is 7 or higher, otherwise NO.

{"substance": "LWLPRPGRLLDILFWLNIVLWMVPQSGARILPRRKATNGSGNYIKPETLQQGENCAPGCLAQASLEPSKHFCPS [MAB21L3]", "class.assignment": "NO"}
{"substance": "LAEEVGMGALCLLC [FGA]", "class.assignment": "YES"}
{"substance": "RCCCHGGLGQRGERSVLEA [OBSCN]", "class.assignment": "YES"}
{"substance": "WACYFHGVCQ [OR5D18]", "class.assignment": "NO"}
{"substance": "SFLFYSH [DNAJB9]", "class.assignment": "YES"}

* * *

Tested on: HEK293T;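 also: lentiviral eGFP-IRES-mCherry reporter pool sorted by FACS 96 h post-transduction, gated on mCherry-high cells, Illumina read counts normalized per million, median across four biological replicates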
Test: median enrichment of reporter reads in eGFP-reduced (low/intermediate) vs eGFP-high sorted cells (eGFP-extension fusion abundance) (ratio); higher = stronger loss of eGFP-fusion protein abundance (more destabilising extension)
I would appreciate it if you labelled entries Condition met when median enrichment is 6 or higher, otherwise Condition not met.

{"substance": "SGPGIHVGGRGRGGRREGRGEIHTVDTLTSWPKSLPQDLPDLHGQASYGGVSISFFLFLFPGLRASWGPRFTNSPTPLKLWRR [AQP1]", "class.assignment": "Condition not met"}
{"substance": "SEAPAANTMQARCVSELF [METTL2B]", "class.assignment": "Condition not met"}
{"substance": "LAGAAGVPPAPGPWVSAARPPPVPAVLSVHWGPSVVPFVENLLHKALLNCLELGTSIPMETSPVWGTWRICQRLSDMGPWQFY [NYNRIN]", "class.assignment": "Condition met"}
{"substance": "ERAPTGRWGRRG [Degron KLHDC3]", "class.assignment": "Condition not met"}
{"substance": "WRFLLKLTLFHLSF [VHL]", "class.assignment": "Condition met"}
{"substance": "AGAQPLPGMRLSADGETATQSFGLCVCVCVCVCVCAHPRVPVCVRILPPGAEVPWVSPLLCNGLLTGAAAPRGLCSGGTQCRM [FGFR3]", "class.assignment": "Condition met"}
{"substance": "SGAENGSCRKIRLRRLPAFCHPSHSQTPDHLKLLTLWFQIFFNLLLLLSLSNLGTFKNREMSECG [STAT3]", "class.assignment": "Condition met"}
{"substance": "CKKKKKKALAFSCLFC [PCDH17]", "class.assignment": "Condition met"}
{"substance": "RASPAHCQGRRGPDQGPRGLRAPPLSPPQCLRGPEPPPVPAAPLPQGPAMPHPGLKFCKVLRGPEHVSATRGSGQHCVLRLVS [SLC29A4]", "class.assignment": "Condition met"}
{"substance": "SSLPWAG [TMEM266]", "class.assignment": "Condition not met"}
{"substance": "WECRSAGRREE [CNPY1]", "class.assignment": "Condition met"}
{"substance": "VVRASPYLLLSPCEEDPDLASFPRRGWGVPRVPVLEGPPSPSLITVLFSAPPSAARLQHQGEADAEPHRWESCLWKGAFCYNL [ZNF646]", "class.assignment": "Condition not met"}
{"substance": "ELSASARRASLPNQPWVPGSRLEPAINSLFLAPGSNGGPHLRTSGEAIAPSGEVMHFLSTYCLPGPRAHGEETWAHPCRKRDN [TSSK6]", "class.assignment": "Condition not met"}
{"substance": "RVFGNRISCVAHRPVEKLEPKLSYLEMTFGLDSW [C12orf76]", "class.assignment": "Condition not met"}
{"substance": "RGRGCPPRPLTPPAAVAAILPLAWGLPSPSQSISPPPSCSGWMWACR [KMT2B]", "class.assignment": "Condition not met"}
{"substance": "QGLQKNWPWGTKAFFSGLLPRP [KANK4]", "class.assignment": "Condition not met"}
{"substance": "RHSELLAVEEHHAYL [YTHDC2]", "class.assignment": "Condition not met"}
{"substance": "SHVRNLSIK [AGTR1]", "class.assignment": "Condition not met"}
{"substance": "EFLSHSPTSTTTGQLSPFPTL [RNASE13]", "class.assignment": "Condition not met"}
{"substance": "RACGAAGAGEASRGRVLRQELDSPTLLSSRQGPGSHILLTLERLELTPLDGKCISEKGKAAWGSPI [SLC1A7]", "class.assignment": "Condition met"}
{"substance": "RELHYPFPSQTTN [MDC1]", "class.assignment": "Condition not met"}
{"substance": "QRTTEHLVSQNGLTTVSTTYSQMSISTSVELK [CYLC1]", "class.assignment": "Condition not met"}
